tested on: kochia; assay: Test A preemergence; type: in vivo, Kochia scoparia; details: 125 g ai/ha, 0 to 100 scale where 0 is no effect and 100 is complete control
# key: entry, value: Plant response rating, Kochia
measured property: Plant response rating, Kochia

INSERT INTO measurements (compound, numeric_result) VALUES
  ('CC(F)c1cccc(Oc2ncc(Cl)cn2)c1-n1cc(Br)cn1 (centres unmarked)', 40),
  ('Clc1cnc(Oc2cccc(Br)c2-n2cc(I)nn2)nc1', 70),
  ('N#Cc1cnn(-c2c(Cl)cccc2Oc2ncc(Cl)cn2)c1', 100),
  ('Fc1cnc(Oc2cccc(Cl)c2-n2cc(OC(F)F)cn2)nc1', 70),
  ('CCCOc1cnn(-c2c(F)cccc2Oc2ncc(F)cn2)c1', 0),
  ('Clc1cnc(Oc2ccccc2-n2ccnc2)nc1', 0),
  ('N#Cc1cccc(Oc2ncc(Cl)cn2)c1-n1cc(SC(F)(F)F)cn1', 100),
  ('CC(C)c1cnn(-c2c(C#N)cccc2Oc2ncc(Cl)cn2)c1', 80);

Data credit: patent US9695155B2
